# Test system: U251 CNS
# assay: NCI tumour cell line growth inhibition, 48 h
observable: TGI (µM)
Give bare numbers, in µM.

Reference set, count: 4
| compound | testedOn | TGI (µM) |
| --- | --- | --- |
| CN(CCCN)CCCNc1nc2ccccc2c2[nH]c3ccccc3c12 | U251 CNS | 1.07 |
| COc1cc(C2c3cc4c(cc3OC(N3CCCC3)C2C)OCO4)cc(OC)c1OC (stereo unspecified) | U251 CNS | 13.2 |
| Cc1ccc(S(=O)(=O)N2CCSCCSCCSCCSCC2)cc1 | U251 CNS | 35.3 |
| CC(C)=CCc1c2c(c3occ(-c4ccc(O)c(O)c4)c(=O)c3c1O)C=CC(C)(C)O2 | U251 CNS | 2.8 |

Below: the item to evaluate.
Retrieve TGI on U251 CNS; query `Nc1nn2c(C(Br)Br)cc(C(Br)Br)nc2c1[N+](=O)[O-]`
2.54

###

# System: T-47D breast
# assay: NCI tumour cell line growth inhibition, 48 h
observable: GI50

Reference set, count: 2
| compound | result |
| --- | --- |
| COc1ccc(N2C(C)=C(C#N)C34C(=O)N(c5ccccc5)C(=O)C3=C(O)C=CC24O)cc1 (stereo not given) | 13 µM |
| O=C1OC(=O)C(c2c[nH]c3ccccc23)=C1c1c[nH]c2ccccc12 | > 25 µM |

Hi team, please reply with GI50 for each item in this list.
1. Cc1sc(C(=O)Nc2cc(C(=O)NCCCN(C)C)n(C)c2)cc1NC(=O)CCCN1C(=O)c2cccc3cccc(c23)C1=O
2. CN1CCN(CCc2cccc(C(=O)c3cnn(-c4ccc(F)cc4)c3N)c2)CC1
3. CC1SC(c2c(Cl)cccc2Cl)N(NC(=O)c2[nH]c3ccc(F)cc3c2-c2ccccc2)C1=O (stereo not given)

> 100 µM
> 25 µM
2.61 µM

###

Kindly supply the reported TGI values for the records listed here.
# Tested on: NCI-H23 lung
# assay: NCI tumour cell line growth inhibition, 48 h
Give bare numbers, in µM.

| smiles | testedOn | TGI, µM |
| --- | --- | --- |
| ClCCn1c(CCl)nc2ccc(Cl)cc21 | NCI-H23 lung | 0.832 |
| C=C1C(=O)O[C@H]2[C@H]1CC/C(COC(=O)NCc1ccccc1OC)=C\CC[C@@]1(C)O[C@@H]21 | NCI-H23 lung | 4.11 |
| O=[N+]([O-])C(=C(N1CCCCC1)N1CCCCC1)/C(Cl)=C(\Cl)Br | NCI-H23 lung | 41.2 |

Please give the documented TGI of `CCSC1=CC(=O)c2nc3ccccc3c3ccnc1c23`
11.4

###

# System: DLD-1 colon
# assay: NCI tumour cell line growth inhibition, 48 h
observable: TGI

Reference set, count: 3
| compound | result |
| --- | --- |
| N#C/C(=C1\OC(=O)C(c2ccc(Br)cc2)=C1O)c1ccc(Br)cc1 | 34.6 µM |
| CCOC(=O)C1=C(C)N(Cc2ccccc2)C(C)=C(C(=O)OCC)C1c1ccccc1O | > 100 µM |
| COc1ccccc1NC(=O)C1=C(C)NC(C)=C(C(=O)Nc2ccccc2OC)C1c1ccccc1F | > 100 µM |

Hi team, please reply with TGI for each item in this list.
1. O=c1c2c([nH]c3cc4c(cc13)OCO4)-c1ccccc1CC2
2. c1cc(-c2cn3ccsc3n2)ccn1
3. COCCN1C2=CCCCC2=Nc2c1nc(N)[nH]c2=O

["> 100 µM", "> 100 µM", "> 100 µM"]

Hi team, please reply with TGI for each item in this list.
1. O=C(O)c1ccc([Se][Se]c2ccc(C(=O)O)cc2)cc1
2. COc1cc(C2c3cc4c(cc3[C@@H](Nc3ccc(C#N)cc3)C3COC(=O)[C@H]23)OCO4)cc(OC)c1O (stereo partly specified)
3. COc1cccc(NC(=O)CC(=O)N2N=C(N(CCC#N)c3ccc(Cl)cc3)CC2c2ccccc2)c1 (stereo unspecified)
4. CCOC(=O)C1=C(C(C)=O)CSC(c2ccccc2)=N1

1. > 100 µM
2. 3.51 µM
3. > 100 µM
4. > 100 µM

###

Kindly supply the reported TGI values for the records listed here.
# System: U251 CNS
# assay: NCI tumour cell line growth inhibition, 48 h

| compound | observable | result |
| --- | --- | --- |
| COc1ccccc1NC(=O)C1=C(C)NC(C)=C(C(=O)Nc2ccccc2OC)C1c1ccccc1F | TGI | > 100 µM |
| N#CC(C(=O)/C(=N/NC(=O)c1ccccc1O)C(C#N)c1ccc(Cl)cc1)c1ccc(Cl)cc1 (configuration not stated) | TGI | 22.5 µM |
| CN(C(=O)C12C3C4C5C3C1(C(=O)O)C5C42)C(C)(C)C (configuration not stated) | TGI | > 100 µM |
| CC(=O)OC(C)c1cc2c(s1)C(=O)c1sccc1C2=O (configuration not stated) | TGI | 4.4 µM |
| O=C(Cn1ccc(=O)[nH]c1=O)Nc1ccc(C(=O)O)c(O)c1 | TGI | > 100 µM |
| CC(=O)NNc1nc(C)c(C(=O)NNC(=O)C(=O)Nc2ccccc2C#N)s1 | TGI | > 100 µM |
| Cc1cc(N(CCC#N)S(=O)(=O)c2ccccc2)ccc1/C=C1N=C(/C=C/c2ccccc2)OC\1=O | TGI | > 100 µM |
| CC(C)C(=O)Nc1nc2nc[nH]c2c(=O)[nH]1 | TGI | > 100 µM |
| O=C1CCSSCCC(=O)NCCN1 | TGI | > 100 µM |
| COc1cc(/C=C/C(=O)O)ccc1C(=O)O/C=C/c1ccccc1 | TGI | > 100 µM |

Hi team, please reply with TGI for each item in this list.
1. NC(=O)C(=O)N/N=C1/c2ccccc2CC1C1(O)C(=O)Nc2c(Cl)cc(Cl)cc21 (configuration not stated)
2. Nc1c(C(=O)Nc2cccc([N+](=O)[O-])c2)sc2nc3c(cc12)C(O)CCC3 (configuration not stated)
3. COc1ccc(C(=O)/C=C/c2ccc(/C=C/c3cc(OC)c(OC)c(OC)c3)cc2)cc1
4. Cc1ccc(-c2c(N)[n+]([O-])c3ccccc3[n+]2[O-])cc1
5. CCN(Cc1ccc(F)c(F)c1)c1ccc(CO)c(Cl)c1
6. O=c1cc(/C=C/c2ccc(O)c(O)c2)oc(/C=C/c2ccc(O)c(O)c2)c1
7. OC[C@@H](O)[C@H]1NC[C@@H](O)[C@H]1O

["> 100 µM", "> 72.4 µM", "54.7 µM", "27.8 µM", "15.1 µM", "9.57 µM", "> 100 µM"]

###

Kindly supply the reported GI50 values for the records listed here.
# Tested on: M14 melanoma
# assay: NCI tumour cell line growth inhibition, 48 h

Reference set, count: 3
| compound | observable | result |
| --- | --- | --- |
| O=C1c2ccccc2-c2c1c1ccccc1c(=O)n2CCCNCCCNCCCn1c2c(c3ccccc3c1=O)C(=O)c1ccccc1-2 | GI50 | 0.333 µM |
| Cc1sc(C(=O)Nc2cc(C(=O)NCCCN(C)C)n(C)c2)cc1NC(=O)CCCN1C(=O)c2cccc3cccc(c23)C1=O | GI50 | > 100 µM |
| COc1ccc(N2C(C)=C(C#N)C34C(=O)N(c5ccccc5)C(=O)C3=C(O)C=CC24O)cc1 (stereo not drawn) | GI50 | 13.6 µM |

Hi team, please reply with GI50 for each item in this list.
1. O=C1OC(=O)C(c2c[nH]c3ccccc23)=C1c1c[nH]c2ccccc12
2. C=C1C(=O)O[C@H]2[C@H]1CC/C(COC(=O)NCc1ccccc1OC)=C\CC[C@@]1(C)O[C@@H]21
3. Nc1cc2cccc[n+]2c2cc(Cl)ccc12
4. COC(=O)[C@]12CC[C@@H](C)[C@H](C)[C@@H]1C1=CC[C@@H]3[C@@]4(C)C[C@@H](OC(C)=O)[C@H](O)[C@@](C)(COC(C)=O)[C@@H]4[C@H](O)C[C@@]3(C)[C@]1(C)CC2
5. Nc1ccn(Cc2ccc(C34CC5CC(CC(C5)C3)C4)c(O)c2)c(=O)n1
6. CCCCN1CCN(c2ccc3nc(-c4ccc5nc(-c6ccc(C(F)(F)F)cc6)[nH]c5c4)[nH]c3c2)CC1
7. CCN(Cc1ccc(F)c(F)c1)c1ccc(CO)c(Cl)c1

> 25 µM
1.1 µM
19.3 µM
1.96 µM
> 100 µM
1.34 µM
14 µM

Hi team, please reply with GI50 for each item in this list.
1. COc1cc(Cl)cc(-c2nn(C(=O)NCCN3CCOCC3)cc2-c2ccncc2)c1
2. CC(C)(C)C[C@H]1NC(C(=O)NCC[C@H](O)CO)[C@H](c2cccc(Cl)c2)[C@@]12C(=O)Nc1cc(Cl)c(F)cc12 (stereo partly drawn)
3. CC(C)(C)C#CC1=C(Br)C(=O)OC1

["5.42 µM", "16.6 µM", "3.61 µM"]
